Tested on: H1299 p53 Y220C
PROCEDURE DETAILS: Cell Proliferation Assay (CellTiter-Glo, CTG), H1299 p53 Y220C (NClH1299-inducible p53 Y220C)
Format: cell-based
CONDITION SET: Homo sapiens, NCI-H1299, 120 h, CellTiter-Glo, H1299 p53 Y220C, 5 days
QUANTITY: IC50

entry_smiles=CNC(=O)c1ccc(N[C@@H](C)C#Cc2nc3c(N[C@@H]4CCN(C)C[C@@H]4F)cccn3c2SC(F)(F)F)c(OC)c1 obs_value="> 3 µM"
entry_smiles=COc1ccc(C(=O)NC(C)C)cc1NCC#Cc1nc2c(N[C@@H]3CCN(C)C[C@@H]3F)cccn2c1SC(F)(F)F obs_value="< 0.75 µM"
entry_smiles=CNC(=O)c1ccc(NCC#Cc2nc3c(N[C@@H]4CCN(C)C[C@@H]4F)cccn3c2CC(F)(F)F)c(C#N)c1 obs_value="> 3 µM"
entry_smiles=CNC(=O)c1ccc(OC)c(NCC#Cc2nc3c(N[C@@H]4CN(C)C[C@@H]4F)cccn3c2SC(F)(F)F)c1 obs_value="< 0.75 µM"

----------
Measured AC50, listed per entry.
ASSAY SYSTEM: p53 Y220C (Homo sapiens, UniProt P04637, Y220C)
PROCEDURE DETAILS: Luciferase Reporter Assay (Luc), p53 response element, NClH1299 cells with inducible p53 Y220C
Format: cell-based
CONDITION SET: AC50; NClH1299 cells with inducible p53 Y220C; 6 hour; read-out: Luc P53 Y220C AC50
QUANTITY: AC50

molecule="CN1CC[C@@H](Nc2cccn3c(SC(F)(F)F)c(C#CCNc4ccc(C(=O)NCC(C)(C)O)cc4)cc23)[C@@H](F)C1 [Example 457]" obs_value="< 750 nM"
molecule="CNC(=O)c1ccc(C(=O)NC)c(NCC#Cc2cc3c(N[C@@H]4CCN(C)C[C@@H]4F)cccn3c2SC(F)(F)F)c1 [Example 508]" obs_value="< 750 nM"
molecule="CN1CC[C@@H](Nc2cccn3c(SC(F)(F)F)c(C#CCNc4cc(C(=O)NCC(C)(C)O)ccc4OC4COC4)cc23)[C@@H](F)C1 [Example 459]" obs_value="< 750 nM"
molecule="COc1ccc(C(=O)N[C@H](C)[C@@H](C)O)cc1NCC#Cc1cc2c(N[C@@H]3CCN(C)C[C@@H]3F)cccn2c1SC(F)(F)F [Example 473]" obs_value="< 750 nM"
molecule="CN1CC[C@@H](Nc2cccn3c(SC(F)(F)F)c(-c4noc(CNC(=O)C5CC5)n4)nc23)[C@@H](F)C1 [Example 458]" obs_value="> 3000 nM"
molecule="[2H]C([2H])([2H])Oc1ccc(C(=O)NC)cc1NCC#Cc1cc2c(N[C@@H]3CCN(C)C[C@@H]3F)nccn2c1SC(F)(F)F [Example 470]" obs_value="< 750 nM"
molecule="CNC(=O)c1cnc(OC)c(NCC#Cc2cc3c(N[C@@H]4CCNC[C@@H]4F)cccn3c2SC(F)(F)F)c1 [Example 498]" obs_value="< 750 nM"
molecule="[2H]C([2H])([2H])Oc1cc(S(C)(=O)=O)ccc1NCC#Cc1nc2c(N[C@@H]3CCN(C)C[C@@H]3F)nccn2c1SC(F)(F)F [Example 490]" obs_value="< 750 nM"
molecule="CNC(=O)c1ccc(OC)c(NCC#Cc2cc3c(N[C@@H]4CCN(C)C[C@@H]4F)cccn3c2CC(F)(F)F)c1 [Example 509]" obs_value="< 750 nM"
molecule="CNC(=O)c1ccc(O)c(NCC#Cc2cc3c(N[C@@H]4CCN(C)C[C@@H]4F)cccn3c2SC(F)(F)F)c1 [Example 472]" obs_value="< 750 nM"
molecule="CNC(=O)c1cc(NCC#Cc2cc3c(N[C@@H]4CCN(C)C[C@@H]4F)cccn3c2SC(F)(F)F)c2cncn2c1 [Example 479]" obs_value="< 750 nM"
molecule="O=C(NC[C@@H]1COCCO1)c1ccc(NCC#Cc2cc3c(N[C@@H]4CCNC[C@@H]4F)cccn3c2SC(F)(F)F)cc1 [Example 484]" obs_value="< 750 nM"
molecule="[2H]C([2H])([2H])N1CC[C@@H](Nc2cccn3c(SC(F)(F)F)c(C#CCNc4ccc(C(=O)NC)cc4OC)nc23)[C@@H](F)C1 [Example 476]" obs_value="< 750 nM"
molecule="CNC(=O)c1ccc(OCC2(O)CC2)c(NCC#Cc2cc3c(N[C@@H]4CCN(C)C[C@@H]4F)cccn3c2SC(F)(F)F)c1 [Example 467]" obs_value="< 750 nM"
molecule="CNC(=O)c1ccc(NCC#Cc2cc3c(N[C@@H]4CCNC[C@@H]4F)cccn3c2SC(F)(F)F)c(OC)n1 [Example 488]" obs_value="< 750 nM"
molecule="[2H]C([2H])([2H])Oc1cc(C(=O)NC)ccc1NCC#Cc1nn2c(N[C@@H]3CCN(C)C[C@@H]3F)cccc2c1SC(F)(F)F [Example 500]" obs_value="< 750 nM"
molecule="CNC(=O)c1ccc(O)c(NCC#Cc2cc3c(N[C@@H]4CCNC[C@@H]4F)cccn3c2SC(F)(F)F)c1 [Example 477]" obs_value="< 750 nM"
molecule="COc1cc(C(=O)NC[C@H](C)O)ccc1NCC#Cc1cc2c(N[C@@H]3CCN(C)C[C@@H]3F)cccn2c1SC(F)(F)F [Example 475]" obs_value="< 750 nM"
molecule="CNC(=O)c1ccc(NCC#Cc2cc3c(N[C@@H]4CCN(C)C[C@@H]4F)cccn3c2SC(F)(F)F)c(C(=O)NC)n1 [Example 495]" obs_value="< 750 nM"
molecule="CNC(=O)c1ccc(O[C@H]2C[C@H](O)C2)c(NCC#Cc2cc3c(N[C@@H]4CCN(C)C[C@@H]4F)cccn3c2SC(F)(F)F)c1 [Example 497]" obs_value="< 750 nM"
molecule="COc1cc(C(N)=O)ccc1NCC#Cc1cc2c(N[C@@H]3CCN(C)C[C@@H]3F)cccn2c1SC(F)(F)F [Example 464]" obs_value="< 750 nM"
molecule="CNC(=O)c1cc(NCC#Cc2cc3c(N[C@@H]4CCN(C)C[C@@H]4F)cccn3c2SC(F)(F)F)c2nncn2c1 [Example 483]" obs_value="< 750 nM"
molecule="COc1ccc(C(=O)NC[C@@H](O)CO)cc1NCC#Cc1cc2c(N[C@@H]3CCN(C)C[C@@H]3F)cccn2c1SC(F)(F)F [Example 462]" obs_value="< 750 nM"
molecule="CNC(=O)c1ccc(OC)c(NCC#Cc2cc3c(N[C@@H]4CCN(CC(C)O)C[C@@H]4F)cccn3c2SC(F)(F)F)c1 (single isomer, unassigned) [Example 480]" obs_value="< 750 nM"
molecule="[2H]C([2H])([2H])Oc1ccc(C(=O)NC)cc1NCC#Cc1nc2c(N[C@@H]3CCN(C)C[C@@H]3F)cccn2c1SC(F)(F)F [Example 507]" obs_value="< 750 nM"
molecule="CNC(=O)c1cc(NCC#Cc2cc3c(N[C@H]4CCN(C)C[C@H]4F)cccn3c2SC(F)(F)F)c2nccn2c1 (stereo in doubt) [Example 503]" obs_value="< 750 nM"
molecule="COc1ccc(C(=O)N[C@H]2C[C@@H](O)C2)cc1NCC#Cc1cc2c(N[C@@H]3CCN(C)C[C@@H]3F)cccn2c1SC(F)(F)F [Example 471]" obs_value="< 750 nM"
